// reported koff for each item listed
- measured.target: T1, macaca IL6R-his protein (macaca mulatta)
- T1 chain: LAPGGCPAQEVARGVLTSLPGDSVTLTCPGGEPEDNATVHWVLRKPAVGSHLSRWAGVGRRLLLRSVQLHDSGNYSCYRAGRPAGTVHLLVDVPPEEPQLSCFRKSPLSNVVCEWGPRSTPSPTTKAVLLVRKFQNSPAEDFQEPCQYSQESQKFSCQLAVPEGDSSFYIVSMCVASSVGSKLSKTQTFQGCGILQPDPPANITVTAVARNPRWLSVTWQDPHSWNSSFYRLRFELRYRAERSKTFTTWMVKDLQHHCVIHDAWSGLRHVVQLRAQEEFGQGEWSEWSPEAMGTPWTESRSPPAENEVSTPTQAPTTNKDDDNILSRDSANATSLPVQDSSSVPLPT
- experiment.notes: SPR Biacore T200; mAb captured by anti-mouse IgG on CM5, antigen in flow, 1:1 fit
# output: bare number, implied unit s⁻¹

Can you share its koff? I mean this binder: mouse anti-IL6R monoclonal antibody 1F7 (antibody, V domains shown, Mouse hybridoma mAb) VH: QVQLQQPGAELVKPGASVKLSCKASDYTFTSYWMHWVKQRPGQGLEWIGEINPSNGRTNYNEKFKNKATLTVDKSSSTAYVQLYSLTSEDSAVYYCARLSIHYVFDYWGQGTTLTVSS VL: ELVLTQSPTTMAASPGEKITFTCSASSSISSNYLHWYQQKPGFSPKLLISGTSNLASGVPPRFSGSGSGTSYSLTIVTMEAEDVATYYCQQGSGIPFTFGSGTKLEIK
6.46e-05

# repeat for mouse anti-IL6R monoclonal antibody 1D4 (antibody, V domains shown, Mouse hybridoma mAb) VH: QVQLQQPGAELVKPGASVKLSCKASGYTFTSYWMHWVKVRPGQGLEWIGEINPTNGRTNYNEDFKSKATLTVNSSSSTAYMQLSSLTSEDSAVYYCARLNTHYVFDYWGQGTTLTVSS VL: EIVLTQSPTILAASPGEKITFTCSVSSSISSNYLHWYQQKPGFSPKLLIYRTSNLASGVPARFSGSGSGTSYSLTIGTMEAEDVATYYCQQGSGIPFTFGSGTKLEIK
7.39e-05

Please find the next binder below.
# input binder: mouse anti-IL6R monoclonal antibody 1H7 (antibody, V domains shown, Mouse hybridoma mAb) VH: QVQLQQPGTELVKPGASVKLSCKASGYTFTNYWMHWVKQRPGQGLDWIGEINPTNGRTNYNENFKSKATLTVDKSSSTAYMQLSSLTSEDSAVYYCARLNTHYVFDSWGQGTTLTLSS VL: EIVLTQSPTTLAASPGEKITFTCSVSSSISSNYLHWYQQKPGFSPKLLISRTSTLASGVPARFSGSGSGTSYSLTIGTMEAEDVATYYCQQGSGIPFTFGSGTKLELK ; wanted: its koff
3.14e-05

Each recorded value in this set is attributed to patent US20230167182A1.
